experiment: Substrate activity at ADH105 (unknown origin) assessed as specific enzyme activity using NADH as cofactor at 2.5 to 10 mM measured for 30 mins in presence of 20% hexane-Tris HCL buffer by UV-Vis spectroscopy analysis; settings: dose 2.5-10 mM
log10 Activity values by entry
Use the decimal logarithm of Activity (nmol/min/mg).

A selection of reference data follows.
[
  {
    "smiles record": "CC(=O)C1CCCC1",
    "log10 Activity": 2.34
  },
  {
    "smiles record": "O=C(CCl)c1ccc(F)c(F)c1",
    "log10 Activity": 2.05
  },
  {
    "smiles record": "CC(=O)/C=C/c1ccccc1",
    "log10 Activity": 1.79
  },
  {
    "smiles record": "CC(=O)c1ccc(F)cc1",
    "log10 Activity": 2.09
  },
  {
    "smiles record": "CC(=O)C1CC1",
    "log10 Activity": 1.99
  },
  {
    "smiles record": "CCCCCCCCC(C)=O",
    "log10 Activity": 1.57
  }
]

Exercise: Fill in: log10 Activity of CC(=O)c1cc(C(F)(F)F)cc(C(F)(F)F)c1 is ___
Key: 1.76

====

assay: Substrate activity at ADH20 (unknown origin) assessed as specific enzyme activity using NADPH as cofactor at 2.5 to 10 mM measured for 30 mins in presence of Tris HCL buffer by UV-Vis spectroscopy analysis; conditions: Homo sapiens, dose 2.5-10 mM
# strict inequality: Activity < 40 nmol/min/mg yields 1, everything else yields -1

Recorded results for 3 compounds are shown here.
[
  {
    "smiles record": "CNCC(=O)c1cccc(O)c1",
    "cat": -1
  },
  {
    "smiles record": "COc1ccc2c(c1)CCCC2=O",
    "cat": 1
  },
  {
    "smiles record": "CC(=O)c1cc[nH]n1",
    "cat": 1
  }
]

Exercise: Is it true that Activity reported for CC(C)(C)NCC(=O)c1cc(Cl)c(N)c(Cl)c1 is less than 40 nmol/min/mg?
Key: 1

Exercise: Below 40 nmol/min/mg on Activity? Entry CC(=O)c1ccc(C[C@H](N)C(=O)O)cc1
Key: -1

====

experiment: Substrate activity at ADH105 (unknown origin) assessed as specific enzyme activity using NADH as cofactor at 2.5 to 10 mM measured for 30 mins in presence of 20% hexane-Tris HCL buffer by UV-Vis spectroscopy analysis; settings: dose 2.5-10 mM
Below, each entry is listed alongside its reported Activity.
Note to self: number, then unit, no commentary.

[
  {
    "smiles record": "CNCC(=O)c1cccc(O)c1",
    "Activity": "17.4 nmol/min/mg"
  },
  {
    "smiles record": "COc1cccc(C(C)=O)c1",
    "Activity": "397 nmol/min/mg"
  },
  {
    "smiles record": "CC(=O)c1ccc(F)nc1",
    "Activity": "137 nmol/min/mg"
  },
  {
    "smiles record": "CCc1ccc(OC)c(C(C)=O)c1",
    "Activity": "64 nmol/min/mg"
  },
  {
    "smiles record": "O=C(c1ccccc1)c1ccccc1",
    "Activity": "14.3 nmol/min/mg"
  },
  {
    "smiles record": "CC(C)(C)NCC(=O)c1cc(Cl)c(N)c(Cl)c1",
    "Activity": "34.6 nmol/min/mg"
  },
  {
    "smiles record": "O=C(CBr)c1ccccc1",
    "Activity": "337 nmol/min/mg"
  }
]

Exercise: Given CC(=O)Cc1ccccc1 , state its recorded Activity.
Key: 239 nmol/min/mg
